Reported MIC by item:
Tested on: Escherichia coli
PROTOCOL DESCRIPTION: Antimicrobial activity against Escherichia coli ATCC 35218 by MTT assay
Assay type: functional
OBSERVED PROPERTY: MIC (µg/mL)

# COMPOUND, TESTED TARGET, BOUND SIGN, MEASUREMENT
data = [
    ("COc1ccc(C2CC(c3ccccc3)=NN2C(C)=O)cc1 (stereo unspecified)", "Escherichia coli", ">", 50),
    ("COc1cc(OC)cc(C2CC(c3ccc(C)c(C)c3)=NN2C(C)=O)c1 (stereo unspecified)", "Escherichia coli", ">", 50),
    ("COc1cc(OC)cc(C2CC(c3ccc(Cl)cc3)=NN2C(C)=O)c1 (stereo unspecified)", "Escherichia coli", "=", 12.5),
    ("CC(=O)N1N=C(c2ccc(C)c(C)c2)CC1c1ccc(F)cc1 (stereo unspecified)", "Escherichia coli", "=", 25),
    ("CC(=O)N1N=C(c2ccccc2F)CC1c1ccccc1 (stereo unspecified)", "Escherichia coli", ">", 50),
    ("COc1ccc(C2=NN(C(C)=O)C(c3cc(OC)cc(OC)c3)C2)cc1 (stereo unspecified)", "Escherichia coli", "=", 12.5),
    ("CC(=O)N1N=C(c2ccccc2F)CC1c1ccc(F)cc1 (stereo unspecified)", "Escherichia coli", "=", 50),
    ("CC(=O)N1N=C(c2ccc(Cl)cc2)CC1c1ccccc1 (stereo unspecified)", "Escherichia coli", "=", 25),
    ("CC(=O)N1N=C(c2ccc(Cl)cc2)CC1c1ccccc1Cl (stereo unspecified)", "Escherichia coli", "=", 12.5),
    ("CC(=O)N1N=C(c2ccc(C)c(C)c2)CC1c1ccc(Br)cc1 (stereo unspecified)", "Escherichia coli", "=", 25),
    ("CC(=O)N1N=C(c2ccc(Br)cc2)CC1c1ccc(C)cc1 (stereo unspecified)", "Escherichia coli", "=", 25),
    ("CC(=O)N1N=C(c2ccc(Cl)cc2)CC1c1ccc(C)cc1 (stereo unspecified)", "Escherichia coli", "=", 12.5),
    ("CC1(C)S[C@@H]2[C@H](NC(=O)Cc3ccccc3)C(=O)N2[C@H]1C(=O)O", "Escherichia coli", "=", 3.12),
    ("COc1cc(OC)cc(C2CC(c3ccccc3)=NN2C(C)=O)c1 (stereo unspecified)", "Escherichia coli", "=", 25),
    ("CC(=O)N1N=C(c2ccc(Br)cc2)CC1c1ccccc1 (stereo unspecified)", "Escherichia coli", "=", 12.5),
    ("COc1ccc(C2=NN(C(C)=O)C(c3ccccc3Cl)C2)cc1 (stereo unspecified)", "Escherichia coli", "=", 6.25),
    ("CC(=O)N1N=C(c2ccc(C)c(C)c2)CC1c1ccc(Cl)cc1 (stereo unspecified)", "Escherichia coli", "=", 12.5),
    ("CC(=O)N1N=C(c2ccc(Cl)c(Cl)c2)CC1c1ccc(Cl)cc1 (stereo unspecified)", "Escherichia coli", "=", 25),
    ("CC(=O)N1N=C(c2ccc(Br)cc2)CC1c1ccccc1Cl (stereo unspecified)", "Escherichia coli", "=", 12.5),
    ("CC(=O)N1N=C(c2ccccc2F)CC1c1ccc(C)cc1 (stereo unspecified)", "Escherichia coli", "=", 25),
    ("CC(=O)N1N=C(c2ccc(C)c(C)c2)CC1c1ccccc1 (stereo unspecified)", "Escherichia coli", ">", 50),
]
